Where do the numbers come from? From patent US12570675B2.

- tgt: Proteasome chymotrypsin-like activity (S26 protein from RPMI8226 cells) (Homo sapiens)
pIC50: −log10 of the molar value.
propertyMeasured: pIC50

compound | result
Cc1cc(C(=O)NCC2=NOC(Cc3ccccc3)(C(=O)N[C@@H](CC(C)C)B(O)O)C2)no1 (stereo partly shown) | > 8.00
CC(C)C[C@H](NC(=O)C1CC(c2cccc(Oc3ccccc3)c2)=NO1)B(O)O (stereo partly shown) | > 6.30
O=C(NCC1=NOC(Cc2ccccc2)(C(=O)N[C@@H](Cc2ccccc2)B(O)O)C1)c1cccc2ccccc12 (stereo partly shown) | > 8.00
COc1cccc(COCC2=NOC(Cc3ccccc3)(C(=O)N[C@@H](CC(C)C)B(O)O)C2)c1 (stereo partly shown) | > 8.00

----------
- tgt: Proteasome chymotrypsin-like activity (S26 protein from RPMI8226 cells) (Homo sapiens, UniProt P28074)
- Sequence (P28074 60-263 limits assumed): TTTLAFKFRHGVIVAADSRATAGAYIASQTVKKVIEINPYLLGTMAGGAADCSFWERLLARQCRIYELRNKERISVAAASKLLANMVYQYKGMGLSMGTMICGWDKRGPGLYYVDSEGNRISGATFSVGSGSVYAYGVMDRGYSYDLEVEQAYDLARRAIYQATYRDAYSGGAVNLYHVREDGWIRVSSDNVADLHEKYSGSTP
pIC50: −log10 of the molar value.

compound | pIC50
Cc1nc(COCC2=NOC(Cc3ccccc3)(C(=O)N[C@@H](CC(C)C)B(O)O)C2)cs1 (stereo partly drawn) | > 8.00
CC(C)C[C@H](NC(=O)C1(Cc2ccc(Cl)cc2)CC(CNC(=O)c2nccc3ccccc23)=NO1)B(O)O (stereo partly drawn) | > 8.00
CC(C)C[C@H](NC(=O)C1(C(F)(F)c2ccccc2)CC(CNC(=O)c2cccn3ccnc23)=NO1)B(O)O (stereo partly drawn) | > 7.60
CC(C)C[C@H](NC(=O)C1(Cc2ccccc2)CC(C(C)(C)NC(=O)c2nccc3ccccc23)=NO1)B(O)O (stereo partly drawn) | > 8.00
CC(C)C[C@H](NC(=O)C1CC(COCc2ccccc2)=NO1)B(O)O (stereo partly drawn) | > 7.00
CC(C)C[C@H](NC(=O)C1CC(c2cccc(OC(F)(F)F)c2)=NO1)B(O)O (stereo partly drawn) | > 6.30

----------
- tgt: Proteasome chymotrypsin-like activity (S26 protein from RPMI8226 cells) (Homo sapiens, UniProt P28074)
Collected IC50 values appear next to each entry.

molecule | IC50
CC(C)C[C@H](NC(=O)C1(Cc2ccccc2)CC(COCc2cccc(Br)n2)=NO1)B(O)O (some centres unmarked) | < 0.01 µM
CC(C)C[C@H](NC(=O)C1(C(F)c2ccccc2)CC(CNC(=O)c2nccc3ccccc23)=NO1)B(O)O (some centres unmarked) | < 0.01 µM
CC(C)C[C@H](NC(=O)C1CC(CNC(=O)c2cccc(Oc3ccccc3)c2)=NO1)B(O)O (some centres unmarked) | < 0.025 µM
CC(C)C[C@H](NC(=O)C1CC(c2ccc(C(C)(C)C)cc2)=NO1)B(O)O (some centres unmarked) | < 0.25 µM
CC(C)C[C@H](NC(=O)C1(Cc2ccccc2)CC(CNC(=O)c2cccc(C#N)n2)=NO1)B(O)O (some centres unmarked) | < 0.01 µM
Cc1cccc(C(=O)NCC2=NOC(Cc3ccccc3)(C(=O)N[C@@H](CC(C)C)B(O)O)C2)n1 (some centres unmarked) | < 0.01 µM
Cc1cc(C(=O)NCC2=NOC(C(=O)N[C@@H](CC(C)C)B(O)O)C2)no1 (some centres unmarked) | < 0.25 µM
CC(C)C[C@H](NC(=O)C1CC(c2cccc(-c3ccccc3)n2)=NO1)B(O)O (some centres unmarked) | < 0.1 µM

----------
IC50 data for Proteasome caspase-like activity (S26 protein from RPMI8226 cells) (Homo sapiens (Human)) follow.

compound | IC50
Cc1ccc(F)cc1C(=O)NCC1=NOC(C(=O)N[C@@H](CC(C)C)B(O)O)C1 (stereo partly shown) [Example 82] | > 500 nM
Cc1cccc(C(=O)NCC2=NOC(Cc3ccccc3)(C(=O)N[C@@H](CC(C)C)B(O)O)C2)n1 (stereo partly shown) [Example 160] | > 500 nM
CC(C)C[C@H](NC(=O)C1(Cc2ccccc2)CC(COCc2nccc3ccccc23)=NO1)B(O)O (stereo partly shown) [Example 49] | > 1000 nM
CC(C)C[C@H](NC(=O)C1(Cc2ccccc2)CC(CNC(=O)c2ccnn2C(C)C)=NO1)B(O)O (stereo partly shown) [Example 171] | > 500 nM
